Values compiled from the supplement of paper PMC10126150.

- Tested on: ATP;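 also: ATP exposure 15 min at 22 °C before imaging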
- test: switch fluorescence ratio, 500 uM ATP over buffer (Cy3 cluster intensity, sum of 5 cycles each) (fold (ratio)); higher = stronger signal-on switching upon ATP binding; sequences stand for … in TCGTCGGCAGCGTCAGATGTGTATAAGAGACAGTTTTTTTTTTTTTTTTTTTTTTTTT…TC
- experimental conditions: aptamer strand: ATP DNA aptamer (quencher-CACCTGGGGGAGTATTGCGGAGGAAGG + anchor), 100 nM annealed; ATP concentration: 500 uM
# if value of switch fluorescence ratio reaches 1, tag yes; if it stays below, tag no

Look over these answered cases.
residue codes	qualitative label
CGACAGCGGC	yes
TTCCAGATTC	no
GGAATTTTGC	yes
TGATTGCCCG	no
GGGACCGACT	yes

Query: Has AAGGTGTCGA a recorded switch fluorescence ratio greater than or equal to 1?
Reply: no

Query: Record: TACGGAGGGT
Reply: yes

Query: Record: GCAATAATCG
Reply: yes

Query: Record: CTGAAGGGAT
Reply: yes

Query: Record: CAAGTTAATG
Reply: no

Query: Record: GAAGGTTAAC
Reply: yes

Query: Record: TTCAGATACC
Reply: yes

* * *

- Test system: ATP;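 also: ATP exposure 15 min at 22 °C before imaging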
- test: switch fluorescence ratio, 500 uM ATP over buffer (Cy3 cluster intensity, sum of 5 cycles each) (fold (ratio)); higher = stronger signal-on switching upon ATP binding; sequences stand for … in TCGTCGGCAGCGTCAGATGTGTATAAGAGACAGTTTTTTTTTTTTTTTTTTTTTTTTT…TC
- experimental conditions: aptamer strand: ATP DNA aptamer (quencher-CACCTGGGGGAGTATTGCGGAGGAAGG + anchor), 100 nM annealed; ATP concentration: 500 uM
Recorded switch fluorescence ratio, one value per entry.
Write the value as a bare number.

See these solved cases before continuing.
residue codes	reading
GCAGGGATTG	0.973
CGAATGTTGG	0.99
GGGAGTTAAA	0.972
CATTTAGGGG	0.995
ATGCTTGCTG	0.982

Query: For the sequence shown here, GACGGCGTCG , give the reported switch fluorescence ratio.
Reply: 0.974

Query: Record: GGAATTGGTT
Reply: 1.01

Query: Record: TCAACGGGAA
Reply: 1.01

Query: Record: AGTTTGGGGA
Reply: 0.979

Query: Record: GGACTGGGGA
Reply: 1

* * *

Recorded switch fluorescence ratio, one value per entry.
- Test system: ATP;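 also: ATP exposure 15 min at 22 °C before imaging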
- test: switch fluorescence ratio, 500 uM ATP over buffer (Cy3 cluster intensity, sum of 5 cycles each) (fold (ratio)); higher = stronger signal-on switching upon ATP binding; sequences stand for … in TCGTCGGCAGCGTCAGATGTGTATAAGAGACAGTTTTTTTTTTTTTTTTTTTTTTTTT…TC
- experimental conditions: aptamer strand: ATP DNA aptamer (quencher-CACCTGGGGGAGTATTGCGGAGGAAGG + anchor), 100 nM annealed; ATP concentration: 500 uM
Write the value as a bare number.

See these solved cases before continuing.
residue codes	switch fluorescence ratio
GCGGGAGAGG	1.02
AGGGGACGAT	0.989
TTTATGTATG	1.02

Query: For the sequence shown here, TGTCGCTCGT , give the reported switch fluorescence ratio.
Reply: 0.992

Query: Record: CCAAGAGTCG
Reply: 1.08

Query: Record: ATCAACGGTG
Reply: 1.01

Query: Record: TGATATTGAG
Reply: 1

Query: Record: AGATTTTGGT
Reply: 0.995

Query: Record: CGAAAAGGTG
Reply: 1.05

Query: Record: TGCTGTGGGA
Reply: 0.969

Query: Record: TTACGCATTT
Reply: 1.12

Query: Record: GAGATTTGGA
Reply: 1.03

Query: Record: AGTCGGTGGA
Reply: 1
